# protocol.notes: Apparent permeability from apical to basolateral side of human Caco2 cells
# measurement.context: Caco-2
measurement.type: Papp A→B (×10⁻⁶ cm/s)

compound: CC(=O)N[C@@H](CCN1[C@@H]2CC[C@H]1C[C@@H](n1c(C)nc3c1CCN(C(=O)C(C)(C)C)C3)C2)c1cccc(F)c1
recorded.number: 1
//
compound: COC(=O)N[C@@H](CCN1[C@@H]2CC[C@H]1C[C@@H](n1c(C)nc3c1CN(C(=O)OC)CC3)C2)c1cccc(F)c1
recorded.number: 17
//
compound: CC(=O)N[C@@H](CCN1[C@@H]2CC[C@H]1C[C@@H](n1c(C)nc3c1CCN(C(=O)C(C)C)C3)C2)c1cccc(F)c1 [PF-232798]
recorded.number: 2
//
compound: CC(=O)N[C@@H](CCN1[C@@H]2CC[C@H]1C[C@@H](n1c(C)nc3c1CN(C(=O)OC(C)C)CC3)C2)c1ccccc1
recorded.number: 5
//
compound: CCC(=O)N1CCc2c(nc(C)n2[C@H]2C[C@H]3CC[C@@H](C2)N3CC[C@H](NC(C)=O)c2cccc(F)c2)C1
recorded.number: 2

---

# protocol.notes: Clearance in rat at 2 mg/kg, iv and 2 mg/kg, po
# Format: ADME, organism-based
# measurement.context: in vivo

molecule: COC(=O)N1CCc2c(nc(C)n2[C@H]2C[C@H]3CC[C@@H](C2)N3CC[C@H](NC(C)=O)c2cccc(F)c2)C1
u: mL/min/kg
clearance: 91

---

# protocol.notes: Volume of distribution in dog at 0.5 mg/kg, iv and 0.5 mg/kg, po
# Type: ADME, organism-based, Canis lupus familiaris
# measurement.context: in vivo

compound: CC(=O)N[C@@H](CCN1[C@@H]2CC[C@H]1C[C@@H](n1c(C)nc3c1CCN(C(=O)C(C)C)C3)C2)c1cccc(F)c1 [PF-232798]
Vd: 10.5 L/kg
--
compound: COC(=O)N1CCc2nc(C)n([C@H]3C[C@H]4CC[C@@H](C3)N4CC[C@H](NC(C)=O)c3cccc(F)c3)c2C1
Vd: 11.8 L/kg
--
compound: COC(=O)N1CCc2c(nc(C)n2[C@H]2C[C@H]3CC[C@@H](C2)N3CC[C@H](NC(C)=O)c2cccc(F)c2)C1
Vd: 9.9 L/kg

---

# protocol.notes: Oral bioavailability in rat at 2 mg/kg
# Assay type: ADME, organism-based
# measurement.context: in vivo
measurement.type: bioavailability

molecule: COC(=O)N1CCc2nc(C)n([C@H]3C[C@H]4CC[C@@H](C3)N4CC[C@H](NC(C)=O)c3cccc(F)c3)c2C1
result: 8%
--
molecule: CC(=O)N[C@@H](CCN1[C@@H]2CC[C@H]1C[C@@H](n1c(C)nc3c1CCN(C(=O)C(C)C)C3)C2)c1cccc(F)c1
result: < 5%
--
molecule: COC(=O)N1CCc2c(nc(C)n2[C@H]2C[C@H]3CC[C@@H](C2)N3CC[C@H](NC(C)=O)c2cccc(F)c2)C1
result: 20%

---

# System: Human immunodeficiency virus 1
# protocol.notes: Antiviral activity against maraviroc-resistant HIV1 isolate CC185 at 10 times IC90 concentration
# Type: functional, organism-based
Active and inactive are the calls of the source. No cut-off for these calls is given here.
measurement.type: Activity

compound: Cc1nnc(C(C)C)n1[C@H]1C[C@H]2CC[C@@H](C1)N2CC[C@H](NC(=O)C1CCC(F)(F)CC1)c1cccc(F)c1
result: inactive

compound: COC(=O)N1CCc2nc(C)n([C@H]3C[C@H]4CC[C@@H](C3)N4CC[C@H](NC(C)=O)c3cccc(F)c3)c2C1
result: Active

compound: CCC(=O)N1CCc2c(nc(C)n2[C@H]2C[C@H]3CC[C@@H](C2)N3CC[C@H](NC(C)=O)c2cccc(F)c2)C1
result: Active

compound: Cc1nnc(C2CC2)n1[C@H]1C[C@H]2CC[C@@H](C1)N2CC[C@H](NC(=O)C1CCC(F)(F)CC1)c1ccccc1
result: inactive

compound: COC(=O)N1CCc2c(nc(C)n2[C@H]2C[C@H]3CC[C@@H](C2)N3CC[C@H](NC(C)=O)c2cccc(F)c2)C1
result: Active

compound: CCCCN1C(=O)[C@@H]([C@H](O)C2CCCCC2)NC(=O)C12CCN(Cc1ccc(Oc3ccc(C(=O)O)cc3)cc1)CC2
result: Active

compound: COC[C@@H](c1ccc(C(F)(F)F)cc1)N1CCN(C2(C)CCN(C(=O)c3c(C)ncnc3C)CC2)C[C@@H]1C
result: Active

compound: CC(=O)N1CC(C(=O)N[C@@H](CCN2[C@@H]3CC[C@H]2C[C@@H](n2c(C)nc4ccccc42)C3)c2ccccc2)C1
result: Active

compound: Cc1nc2ccccc2n1[C@H]1C[C@H]2CC[C@@H](C1)N2CC[C@H](NC(=O)C1CCOCC1)c1ccccc1
result: Active

compound: CC(=O)N[C@@H](CCN1[C@@H]2CC[C@H]1C[C@@H](n1c(C)nc3c1CCN(C(=O)C(C)C)C3)C2)c1cccc(F)c1 [PF-232798]
result: Active

Reference for the values: ChEMBL document CHEMBL1649066
